Numbers sourced from patent US20040241871A1.

- Format: in vivo, human
- Condition notes: in fat; cord serum; individual chlordanes
Quick reference for Concentration of Chlordane in Vital Sample, Cord Serum among some compounds
Reported metric: Concentration of Chlordane in Vital Sample, Cord Serum (ppb)

[
  {
    "Compound": "ClC1=C(Cl)[C@]2(Cl)[C@H]3[C@H]([C@H](Cl)C(Cl)[C@@H]3Cl)[C@@]1(Cl)C2(Cl)Cl (stereo partly drawn) [trans-Nonachlor]",
    "Uom": "ppb",
    "Reading": 16.35
  },
  {
    "Compound": "ClC1=C(Cl)[C@]2(Cl)C3C(Cl)C(Cl)CC3[C@@]1(Cl)C2(Cl)Cl (stereo partly shown) [γ-Chlordane]",
    "Uom": "ppb",
    "Reading": 1.64
  },
  {
    "Compound": "ClC1=C(Cl)[C@]2(Cl)[C@H]3[C@H]([C@H](Cl)C(Cl)[C@@H]3Cl)[C@@]1(Cl)C2(Cl)Cl (stereo partly drawn) [cis-Nonachlor]",
    "Uom": "ppb",
    "Reading": 0.91
  },
  {
    "Compound": "ClC1=C(Cl)[C@]2(Cl)[C@H]3[C@H]([C@H](Cl)[C@]4(Cl)O[C@H]34)[C@@]1(Cl)C2(Cl)Cl [Oxychlordane]",
    "Uom": "ppb",
    "Reading": 6.66
  }
]

* * *

- Type: in vivo, human
- Condition notes: in fat; cord serum; samples from 10 mothers
Lab note: compare Concentration of Endocrine-Disrupting Substance in Vital Sample, Cord Serum with 10 ppb, writing Condition met if less and Condition not met if equal or more.

[
  {
    "Compound": "ClC1=C(Cl)C2(Cl)C3C4OC4C(Cl)C3C1(Cl)C2(Cl)Cl (centres unmarked) [HCE, heptachloroepoxide]",
    "Group": "Condition met"
  },
  {
    "Compound": "ClC1=C(Cl)C2(Cl)C3C(Cl)C=CC3C1(Cl)C2(Cl)Cl (centres unmarked)",
    "Group": "Condition met"
  },
  {
    "Compound": "Clc1c(Cl)c(Cl)c(Cl)c(Cl)c1Cl",
    "Group": "Condition not met"
  },
  {
    "Compound": "ClC(Cl)=C(c1ccc(Cl)cc1)c1ccc(Cl)cc1",
    "Group": "Condition not met"
  },
  {
    "Compound": "ClC1C(Cl)C(Cl)C(Cl)C(Cl)C1Cl (centres unmarked)",
    "Group": "Condition not met"
  }
]

* * *

Quick reference for Concentration of Chlordane in Vital Sample, Maternal Serum among some molecules
- Assay type: in vivo, human
- Condition notes: in fat; maternal serum; individual chlordanes
Reported metric: Concentration of Chlordane in Vital Sample, Maternal Serum

[
  {
    "Molecule": "ClC1=C(Cl)[C@]2(Cl)[C@H]3[C@H]([C@H](Cl)C(Cl)[C@@H]3Cl)[C@@]1(Cl)C2(Cl)Cl (stereo partly drawn) [trans-Nonachlor]",
    "Reading": "17.08 ppb"
  },
  {
    "Molecule": "ClC1=C(Cl)[C@]2(Cl)[C@H]3[C@H]([C@H](Cl)C(Cl)[C@@H]3Cl)[C@@]1(Cl)C2(Cl)Cl (stereo partly drawn) [cis-Nonachlor]",
    "Reading": "1.54 ppb"
  },
  {
    "Molecule": "ClC1=C(Cl)[C@]2(Cl)[C@H]3[C@H]([C@H](Cl)[C@]4(Cl)O[C@H]34)[C@@]1(Cl)C2(Cl)Cl",
    "Reading": "6.30 ppb"
  },
  {
    "Molecule": "ClC1=C(Cl)[C@]2(Cl)C3C(Cl)C(Cl)CC3[C@@]1(Cl)C2(Cl)Cl (some centres unmarked)",
    "Reading": "1.43 ppb"
  },
  {
    "Molecule": "ClC1=C(Cl)[C@]2(Cl)[C@H]3C[C@H](Cl)[C@H](Cl)[C@H]3[C@@]1(Cl)C2(Cl)Cl (relative stereo) [cis-Chlordane]",
    "Reading": "0.86 ppb"
  }
]
